# PROCEDURE_SUMMARY: Half life in human liver microsomes
# ASSAY_SETUP: microsomes
PROPERTY_LABEL: half-life (min)
Lab book: enter the figure in min, no units written.

Data request, read-out half-life, for O=C(NCC1(O)CCCCCC1)c1cc(-c2cnoc2)ccc1Cl
22.3

###

# PROCEDURE_SUMMARY: Volume of distribution at steady state in iv dosed rat
# ASSAY_SETUP: in vivo
PROPERTY_LABEL: Vd (L/kg)
The figure you give is taken to be in L/kg; do not add the unit.

# lookup: Vd of Cc1cc(-c2ccc(Cl)c(C(=O)NCC3(O)CCCCCC3)c2)nn1C[C@@H](O)CN.Cl
11.7
